System: MS2 coat protein
Experiment: apparent KD of MS2 coat protein; designed switch direction (-1 OFF switch, 1 ON switch): -1; higher = weaker reporter binding
Details: input ligand: none
PARAMETER: apparent KD of MS2 coat protein (nM)

INSERT INTO assay_data (seq, assay_value) VALUES
  ('GGAUCACAUGUGAGGAUAUGCAGGUCCUUGGAUCUGCAGAAGGCACAUGAGGAUCACCCAUGUGAUCAAGAUCC [Mat - Exclusion 4 - Eli Mod - D49] (Eterna round: R97, puzzle: Brourd''s mod of Exclusion 4)', 61.2),
  ('UUAAUUAAUUUAAUAUAAGAUCACAUGAGGAUCACCCAUGUAUAGGAUAUCAGCUCGUUUAGAGCUGAGAAGGAUACAUAAUAU [ExNG3/2-B2] (Eterna round: R96, puzzle: Exclusion NG 3)', 230),
  ('GCACGAUAUCAGGAUAUGACUAGCUUCGGCUAGUCAGAAGGGAUGACAUGAGGAUCACCCAUGUGAUCACGUGC [E6/1-B1] (Eterna round: R97, puzzle: Exclusion 6)', 60.5),
  ('GUACGUAGAGGAUAUGGUUAUGAUGACAUGAGGAUCACCCAUGUUAGAGUGGGUAGAUUUCCAGAAGGCUGUGAAC [Eternabot (L1) Solution 98] (Eterna round: R97, puzzle: Exclusion 5)', 1330),
  ('AACCUAAUGCGAGGAUAUACUGAGACGUACAGUCGUCAGACAUGAGGAUCACCCAUGUACGCCUCGUAGAAGGCGCGUGACUAA [Bearareus] (Eterna round: R96, puzzle: Exclusion NG 2)', 16.8);
